test system: PDAC cells (PANC1, MiaPaCa2 and AsPC1); test: MTT cell viability assay in PDAC cell lines; type: cell-based; details: increasing concentrations
MEASUREMENT_LABEL: cell viability in PDAC cells (PANC1, MiaPaCa2, AsPC1), MTT

>  <SAMPLE_SMILES>
COc1cc(C)c(Oc2cc(C)cc(O)c2O)c(O)c1

>  <RESULT>
decreased significantly

$$$$
>  <SAMPLE_SMILES>
O=C(NC[C@H]1C[C@@H]2CC[N@@]1C[C@@H]2CN1CCC(Cc2ccccc2)CC1)c1ccc2c(c1)OCO2

>  <RESULT>
decreased significantly

$$$$
>  <SAMPLE_SMILES>
Cc1ccc(Nc2nc(NCCN(C)C)nc3c2cnn3-c2ccccc2)cc1C

>  <RESULT>
decreased significantly

$$$$

###

system: CRC cells (HT29, HCT116 and DLD1); assay: MTT cell viability assay in CRC cell lines; format: cell-based; details: range over HT29, HCT116 and DLD1
pIC50: −log10 of the molar value.
MEASUREMENT_LABEL: pIC50

>  <COMPOUND>
O=C(NC[C@H](O)CN1CCc2ccccc2C1)c1cc(NC2COC2)ncn1 [EPZ015666, reference compound]

>  <RESULT>
3.71 to 3.74

$$$$
>  <COMPOUND>
COc1cc(C)c(Oc2cc(C)cc(O)c2O)c(O)c1

>  <RESULT>
4.30 to 4.46

$$$$
>  <COMPOUND>
O=C(NC[C@H]1C[C@@H]2CC[N@@]1C[C@@H]2CN1CCC(Cc2ccccc2)CC1)c1ccc2c(c1)OCO2

>  <RESULT>
4.96 to 5.30

$$$$
>  <COMPOUND>
Cc1ccc(Nc2nc(NCCN(C)C)nc3c2cnn3-c2ccccc2)cc1C

>  <RESULT>
4.96 to 5.00

$$$$

###

Test system: HT-29 colon cancer cells
Assay: MTT cell viability assay in HT-29 cells
Format: cell-based
Details: 4 days treatment
Method: The PRMT5 inhibitory activity of the compounds from the screen was confirmed using both AlphaLISA and an MTT [(3-(4,5-dimethylthiazolyl-2)-2,5-diphenyltetrazolium bromide)] assay (PerkinElmer, Waltham, MA). […] Cells were incubated for 2 hours at 37° C. before adding 100 μl of DMSO to each well and quantified with the SYNERGY™ H1 Multi-Mode Reader (BioTek Instruments Inc., Winooski, VT). […]

>  <MOLECULE>
Cc1ccc(-n2ncc3c(NCc4cccnc4)nc(Cl)nc32)cc1

>  <ASSAYED_SYSTEM>
HT-29 colon cancer cells

>  <IC50 (µM)>
2.2

$$$$
>  <MOLECULE>
Clc1ccc(-n2ncc3c(NCC4CCCO4)nc(Cl)nc32)cc1 (centres unmarked)

>  <ASSAYED_SYSTEM>
HT-29 colon cancer cells

>  <IC50 (µM)>
7

$$$$

###

Here the recorded IC50 is given for each entry.
Tested on: PANC1 pancreatic cancer cells
Assay: MTT cell viability assay in PANC1 cells
Format: cell-based
Conditions: Homo sapiens, PANC-1, 96 h, 4 days treatment
Method: The PRMT5 inhibitory activity of the compounds from the screen was confirmed using both AlphaLISA and an MTT [(3-(4,5-dimethylthiazolyl-2)-2,5-diphenyltetrazolium bromide)] assay (PerkinElmer, Waltham, MA). […] Cells were incubated for 2 hours at 37° C. before adding 100 μl of DMSO to each well and quantified with the SYNERGY™ H1 Multi-Mode Reader (BioTek Instruments Inc., Winooski, VT). […]
MEASUREMENT_LABEL: IC50 (µM)

>  <MOLECULE>
Clc1ccc(-n2ncc3c(NCC4CCCO4)nc(Cl)nc32)cc1 (centres unmarked)

>  <UNIT>
µM

>  <QUANTITATIVE_READOUT>
8

$$$$
>  <MOLECULE>
Clc1ccc(-n2ncc3c(NCCN4CCCC4)nc(Cl)nc32)cc1

>  <UNIT>
µM

>  <QUANTITATIVE_READOUT>
11

$$$$

###

Parameter 'readout' = IC50; parameter 'system' = PRMT5 (Homo sapiens, UniProt O14744).
Sequence (O14744 whole entry): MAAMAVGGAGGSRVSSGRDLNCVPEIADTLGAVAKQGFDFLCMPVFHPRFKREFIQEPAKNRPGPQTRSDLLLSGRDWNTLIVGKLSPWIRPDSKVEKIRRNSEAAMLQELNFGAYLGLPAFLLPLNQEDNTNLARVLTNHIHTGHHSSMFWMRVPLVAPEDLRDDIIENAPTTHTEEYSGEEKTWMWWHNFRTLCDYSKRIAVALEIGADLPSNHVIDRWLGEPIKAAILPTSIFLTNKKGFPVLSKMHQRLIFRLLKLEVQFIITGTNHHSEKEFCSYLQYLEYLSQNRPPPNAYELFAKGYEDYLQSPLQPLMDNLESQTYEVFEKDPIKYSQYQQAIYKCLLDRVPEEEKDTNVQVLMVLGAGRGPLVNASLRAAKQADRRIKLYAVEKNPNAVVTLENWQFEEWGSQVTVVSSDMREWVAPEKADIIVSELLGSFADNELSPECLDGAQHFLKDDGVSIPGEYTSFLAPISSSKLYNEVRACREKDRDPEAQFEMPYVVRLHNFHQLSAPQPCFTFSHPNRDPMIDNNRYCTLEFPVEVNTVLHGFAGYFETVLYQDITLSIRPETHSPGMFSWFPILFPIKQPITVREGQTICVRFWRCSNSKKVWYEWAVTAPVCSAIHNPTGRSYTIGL
Sequence (Q9BQA1 whole entry partner): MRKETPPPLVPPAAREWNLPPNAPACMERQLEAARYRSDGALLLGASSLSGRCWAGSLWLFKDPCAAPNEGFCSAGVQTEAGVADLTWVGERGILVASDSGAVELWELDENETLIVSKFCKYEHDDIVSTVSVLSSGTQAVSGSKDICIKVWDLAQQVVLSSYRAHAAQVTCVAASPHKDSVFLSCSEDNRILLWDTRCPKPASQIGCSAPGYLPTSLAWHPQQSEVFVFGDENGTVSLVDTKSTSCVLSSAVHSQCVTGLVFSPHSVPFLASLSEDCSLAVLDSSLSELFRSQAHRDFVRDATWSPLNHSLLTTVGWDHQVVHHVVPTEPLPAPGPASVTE

>  <SAMPLE_SMILES>
Cc1ccc(Nc2nc(NCCN(C)C)nc3c2cnn3-c2ccccc2)cc1C

>  <IC50>
~7.5 µM

$$$$
>  <SAMPLE_SMILES>
O=C(NC[C@H]1C[C@@H]2CC[N@@]1C[C@@H]2CN1CCC(Cc2ccccc2)CC1)c1ccc2c(c1)OCO2

>  <IC50>
~1.5 µM

$$$$
>  <SAMPLE_SMILES>
COc1cc(C)c(Oc2cc(C)cc(O)c2O)c(O)c1

>  <IC50>
~16.5 µM

$$$$

Numbers sourced from patent US12516052B2.
